# protocol_details: Phase I trial: clinical pharmacokinetics in plasma
# Assay type: in vivo, human
# condition_summary: human, plasma, oral, 60 mg, Multiple doses day 28, 60 mg, n=3, Mean ± SD; read-out: T1/2 (converted)
value_type: half-life

cpd_smiles=Cc1c(C(=O)Nc2ccc(Oc3ccnc4cc(OCC(C)(C)O)ccc34)c(F)c2)c(=O)n(-c2ccccc2)n1C assay_value="26.1 h"

----------
# protocol_details: Phase I trial: clinical pharmacokinetics in plasma
# Assay type: in vivo, human
# condition_summary: human, plasma, oral, 60 mg, Single dose day 1, 60 mg, n=5, Geometric Mean (CV%); read-out: AUC0-τ
value_type: AUC (ng·h/mL)

cpd_smiles=Cc1c(C(=O)Nc2ccc(Oc3ccnc4cc(OCC(C)(C)O)ccc34)c(F)c2)c(=O)n(-c2ccccc2)n1C assay_value=13700

----------
# tested_system: HIPK4 (Homo sapiens)
# Sequence (Q8NE63 1-616): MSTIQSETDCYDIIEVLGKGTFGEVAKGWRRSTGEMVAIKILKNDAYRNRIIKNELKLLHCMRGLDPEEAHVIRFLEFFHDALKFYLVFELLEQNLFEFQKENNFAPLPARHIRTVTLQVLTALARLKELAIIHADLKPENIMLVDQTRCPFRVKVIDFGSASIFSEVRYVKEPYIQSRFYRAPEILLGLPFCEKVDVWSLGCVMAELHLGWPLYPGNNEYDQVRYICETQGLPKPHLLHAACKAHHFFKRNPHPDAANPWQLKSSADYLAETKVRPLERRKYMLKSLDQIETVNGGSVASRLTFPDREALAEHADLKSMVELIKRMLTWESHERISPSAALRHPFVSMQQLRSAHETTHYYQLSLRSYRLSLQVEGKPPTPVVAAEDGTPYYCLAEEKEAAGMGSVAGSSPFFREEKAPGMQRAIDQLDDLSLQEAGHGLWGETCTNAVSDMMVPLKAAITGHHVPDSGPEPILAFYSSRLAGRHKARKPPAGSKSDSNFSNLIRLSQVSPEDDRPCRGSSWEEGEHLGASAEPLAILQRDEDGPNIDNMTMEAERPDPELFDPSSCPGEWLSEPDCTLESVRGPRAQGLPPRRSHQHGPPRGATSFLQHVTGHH
value_type: IC50 (nM)

cpd_smiles=Cc1c(C(=O)Nc2ccc(Oc3ccnc4cc(OCC(C)(C)O)ccc34)c(F)c2)c(=O)n(-c2ccccc2)n1C value_type=IC50 assay_value=180

----------
# protocol_details: Phase I trial: clinical pharmacokinetics in plasma
# Assay type: in vivo, human
# condition_summary: human, plasma, oral, 150 mg, Single dose day 1, 150 mg, n=4, Median (Min, Max); read-out: Tmax
value_type: Tmax (h)

cpd_smiles=Cc1c(C(=O)Nc2ccc(Oc3ccnc4cc(OCC(C)(C)O)ccc34)c(F)c2)c(=O)n(-c2ccccc2)n1C assay_value=2.5

----------
# tested_system: EphA8 (Homo sapiens, UniProt P29322)
# Sequence (P29322 28-1005): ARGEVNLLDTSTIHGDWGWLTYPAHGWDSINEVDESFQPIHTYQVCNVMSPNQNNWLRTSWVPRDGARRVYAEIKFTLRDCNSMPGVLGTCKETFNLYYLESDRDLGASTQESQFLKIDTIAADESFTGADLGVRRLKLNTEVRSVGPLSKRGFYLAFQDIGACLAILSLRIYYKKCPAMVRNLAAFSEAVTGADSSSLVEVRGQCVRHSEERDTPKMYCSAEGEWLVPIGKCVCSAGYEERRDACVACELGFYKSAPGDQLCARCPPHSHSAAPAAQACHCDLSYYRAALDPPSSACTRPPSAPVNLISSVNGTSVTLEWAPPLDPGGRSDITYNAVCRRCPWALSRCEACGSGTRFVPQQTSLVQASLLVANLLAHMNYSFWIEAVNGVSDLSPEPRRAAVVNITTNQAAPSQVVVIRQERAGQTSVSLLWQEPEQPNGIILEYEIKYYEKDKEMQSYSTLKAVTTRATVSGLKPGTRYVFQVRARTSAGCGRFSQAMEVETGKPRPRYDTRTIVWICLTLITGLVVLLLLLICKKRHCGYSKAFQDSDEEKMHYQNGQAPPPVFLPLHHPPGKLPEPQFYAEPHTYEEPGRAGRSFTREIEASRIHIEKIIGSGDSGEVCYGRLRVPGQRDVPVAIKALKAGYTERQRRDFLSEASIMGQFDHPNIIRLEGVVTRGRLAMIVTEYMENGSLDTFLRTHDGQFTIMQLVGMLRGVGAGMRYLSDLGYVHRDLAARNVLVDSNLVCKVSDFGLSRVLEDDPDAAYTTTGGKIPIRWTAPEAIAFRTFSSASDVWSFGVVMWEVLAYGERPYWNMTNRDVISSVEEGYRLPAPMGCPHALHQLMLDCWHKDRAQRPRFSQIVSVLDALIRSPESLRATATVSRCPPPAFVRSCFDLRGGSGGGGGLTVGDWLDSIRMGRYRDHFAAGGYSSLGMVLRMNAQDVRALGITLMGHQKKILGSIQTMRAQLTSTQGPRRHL
# protocol_details: Kinase inhibition assay (LANCE or HTRF)
# Format: biochemical
# condition_summary: ATP at Km
pIC50: −log10 of the molar value.
value_type: pIC50

compound="Cc1c(C(=O)Nc2ccc(Oc3ccnc4cc(OCC(C)(C)O)ccc34)c(F)c2)c(=O)n(-c2ccccc2)n1C [CT053]" assay_value=6.21

----------
# protocol_details: Phase I trial: clinical pharmacokinetics in plasma
# Assay type: in vivo, human
# condition_summary: human, plasma, oral, 15 mg, Multiple doses day 28, 15 mg, n=1; read-out: AUC0-τ
value_type: AUC (ng·h/mL)

cpd_smiles=Cc1c(C(=O)Nc2ccc(Oc3ccnc4cc(OCC(C)(C)O)ccc34)c(F)c2)c(=O)n(-c2ccccc2)n1C value_type=AUC assay_value=9510

----------
# protocol_details: Phase I trial: clinical pharmacokinetics in plasma
# Format: in vivo, human
# condition_summary: human, plasma, oral, 100 mg, Single dose day 1, 100 mg, n=7, Geometric Mean (CV%); read-out: AUC0-168
value_type: AUC(0-t)

compound="Cc1c(C(=O)Nc2ccc(Oc3ccnc4cc(OCC(C)(C)O)ccc34)c(F)c2)c(=O)n(-c2ccccc2)n1C [CT053PTSA]" value_type=AUC(0-t) assay_value="56000 ng·h/mL"

----------
# tested_system: UniProt P16591
# Sequence (P16591 whole entry): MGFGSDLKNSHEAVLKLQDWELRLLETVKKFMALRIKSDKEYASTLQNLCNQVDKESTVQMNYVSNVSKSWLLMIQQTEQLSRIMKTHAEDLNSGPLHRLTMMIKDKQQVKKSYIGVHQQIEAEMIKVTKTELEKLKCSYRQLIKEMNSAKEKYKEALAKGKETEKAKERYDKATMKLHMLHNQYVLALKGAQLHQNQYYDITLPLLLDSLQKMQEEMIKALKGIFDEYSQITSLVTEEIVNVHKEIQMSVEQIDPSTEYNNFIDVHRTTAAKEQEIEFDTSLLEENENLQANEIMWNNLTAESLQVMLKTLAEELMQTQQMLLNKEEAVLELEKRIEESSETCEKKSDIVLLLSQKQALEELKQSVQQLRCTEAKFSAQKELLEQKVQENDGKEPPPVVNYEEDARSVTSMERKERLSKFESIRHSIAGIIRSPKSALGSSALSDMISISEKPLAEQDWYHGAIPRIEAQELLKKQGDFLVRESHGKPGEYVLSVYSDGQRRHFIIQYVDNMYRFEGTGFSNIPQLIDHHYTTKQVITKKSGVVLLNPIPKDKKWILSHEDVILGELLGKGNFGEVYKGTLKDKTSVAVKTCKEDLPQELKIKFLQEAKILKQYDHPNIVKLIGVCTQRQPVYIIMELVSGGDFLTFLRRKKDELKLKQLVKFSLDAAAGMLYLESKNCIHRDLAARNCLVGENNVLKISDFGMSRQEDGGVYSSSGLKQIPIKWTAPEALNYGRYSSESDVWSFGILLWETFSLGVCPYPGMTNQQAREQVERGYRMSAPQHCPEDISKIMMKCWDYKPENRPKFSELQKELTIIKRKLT
value_type: IC50 (nM)

cpd_smiles=Cc1c(C(=O)Nc2ccc(Oc3ccnc4cc(OCC(C)(C)O)ccc34)c(F)c2)c(=O)n(-c2ccccc2)n1C units_label=nM assay_value=330

----------
# tested_system: AXL (Homo sapiens, UniProt P30530)
# Sequence (P30530 26-894): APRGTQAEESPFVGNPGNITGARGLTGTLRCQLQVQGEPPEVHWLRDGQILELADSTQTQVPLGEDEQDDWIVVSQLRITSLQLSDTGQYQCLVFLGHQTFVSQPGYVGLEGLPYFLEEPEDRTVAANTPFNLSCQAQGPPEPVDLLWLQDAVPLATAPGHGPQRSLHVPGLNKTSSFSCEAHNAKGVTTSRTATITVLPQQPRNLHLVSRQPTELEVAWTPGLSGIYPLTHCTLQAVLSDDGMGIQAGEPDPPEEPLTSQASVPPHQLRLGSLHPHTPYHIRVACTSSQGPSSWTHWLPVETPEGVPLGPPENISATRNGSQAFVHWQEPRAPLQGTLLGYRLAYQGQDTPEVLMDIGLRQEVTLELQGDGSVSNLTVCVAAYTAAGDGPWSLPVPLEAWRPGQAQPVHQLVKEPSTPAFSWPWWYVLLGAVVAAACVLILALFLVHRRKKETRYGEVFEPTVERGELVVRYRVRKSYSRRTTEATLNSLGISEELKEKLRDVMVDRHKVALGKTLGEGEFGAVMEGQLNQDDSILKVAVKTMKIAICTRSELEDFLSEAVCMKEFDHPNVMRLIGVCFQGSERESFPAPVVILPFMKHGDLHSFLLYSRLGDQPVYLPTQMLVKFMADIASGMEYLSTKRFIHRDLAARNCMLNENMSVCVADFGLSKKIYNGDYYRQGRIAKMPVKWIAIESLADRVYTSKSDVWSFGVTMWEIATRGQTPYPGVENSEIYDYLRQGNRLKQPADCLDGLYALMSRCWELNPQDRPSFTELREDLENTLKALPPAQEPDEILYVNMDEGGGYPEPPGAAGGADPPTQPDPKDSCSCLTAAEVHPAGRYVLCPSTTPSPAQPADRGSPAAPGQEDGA
# protocol_details: Kinase inhibition assay (LANCE or HTRF)
# Type: biochemical
# Set-up: expressing full-length human AXL (AXL-MEFs); expressed in transfected cells; host or cells: mouse embryonic fibroblasts (MEFs)
# condition_summary: ATP at Km
pIC50: −log10 of the molar value.
value_type: pIC50

cpd_smiles=Cc1c(C(=O)Nc2ccc(Oc3ccnc4cc(OCC(C)(C)O)ccc34)c(F)c2)c(=O)n(-c2ccccc2)n1C value_type=pIC50 assay_value=8.47

----------
# protocol_details: Phase I trial: clinical pharmacokinetics in plasma
# Format: in vivo, human
# condition_summary: human, plasma, oral, 150 mg, Single dose day 1, 150 mg, n=4, Geometric Mean (CV%); read-out: AUC0-τ
# Protocol: A clinical pharmacokinetic study of CT053PTSA was performed for both single doses and multiple doses. […] Statistical analysis of CT053-treated tumors versus vehicle-treated tumors or versus nontreated tumors was performed by repeated-measures ANOVA. The data from the tumor xenograft models were expressed as the means ± standard error of the mean (SEM) and were plotted as a function of time. […]
value_type: AUC (ng·h/mL)

cpd_smiles=Cc1c(C(=O)Nc2ccc(Oc3ccnc4cc(OCC(C)(C)O)ccc34)c(F)c2)c(=O)n(-c2ccccc2)n1C value_type=AUC assay_value=30500

----------
# protocol_details: Phase I trial: clinical pharmacokinetics in plasma
# Type: in vivo, human
# condition_summary: human, plasma, oral, 150 mg, Multiple doses day 28, 150 mg, n=1; read-out: AUC0-τ
value_type: AUC (ng·h/mL)

cpd_smiles=Cc1c(C(=O)Nc2ccc(Oc3ccnc4cc(OCC(C)(C)O)ccc34)c(F)c2)c(=O)n(-c2ccccc2)n1C units_label=ng·h/mL assay_value=33600

----------
# tested_system: Fgr (Homo sapiens, UniProt P09769)
# Sequence (P09769 whole entry): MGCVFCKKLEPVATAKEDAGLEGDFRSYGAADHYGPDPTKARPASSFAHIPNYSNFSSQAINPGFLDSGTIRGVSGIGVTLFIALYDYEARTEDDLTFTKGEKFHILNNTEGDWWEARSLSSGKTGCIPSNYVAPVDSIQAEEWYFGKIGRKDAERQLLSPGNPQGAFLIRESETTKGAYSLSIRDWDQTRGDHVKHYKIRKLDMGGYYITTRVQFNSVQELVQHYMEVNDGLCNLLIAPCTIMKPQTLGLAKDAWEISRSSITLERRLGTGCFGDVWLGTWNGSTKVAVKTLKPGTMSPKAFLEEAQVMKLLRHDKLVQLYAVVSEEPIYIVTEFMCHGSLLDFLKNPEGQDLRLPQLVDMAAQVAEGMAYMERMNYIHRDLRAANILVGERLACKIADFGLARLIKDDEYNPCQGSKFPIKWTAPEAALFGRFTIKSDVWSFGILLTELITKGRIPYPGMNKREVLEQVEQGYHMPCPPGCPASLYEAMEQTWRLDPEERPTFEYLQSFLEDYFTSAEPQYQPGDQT
# protocol_details: Kinase inhibition assay (LANCE or HTRF)
# Format: biochemical
# condition_summary: ATP at Km
pIC50: −log10 of the molar value.
value_type: pIC50

cpd_smiles=Cc1c(C(=O)Nc2ccc(Oc3ccnc4cc(OCC(C)(C)O)ccc34)c(F)c2)c(=O)n(-c2ccccc2)n1C value_type=pIC50 assay_value=7.11

----------
# protocol_details: Phase I trial: clinical pharmacokinetics in plasma
# Assay type: in vivo, human
# condition_summary: human, plasma, oral, 60 mg, Multiple doses day 28, 60 mg, n=3, Geometric Mean (CV%)
value_type: Cmax (ng/mL)

cpd_smiles=Cc1c(C(=O)Nc2ccc(Oc3ccnc4cc(OCC(C)(C)O)ccc34)c(F)c2)c(=O)n(-c2ccccc2)n1C units_label=ng/mL assay_value=2720
